tgt: OR5AN1 (Homo sapiens, UniProt Q8NGI8, E89G)
Construct: expressed in transfected cells; host or cells: HEK293T-RTP1A1/RTP2
Sequence (Q8NGI8 1-311 E89G): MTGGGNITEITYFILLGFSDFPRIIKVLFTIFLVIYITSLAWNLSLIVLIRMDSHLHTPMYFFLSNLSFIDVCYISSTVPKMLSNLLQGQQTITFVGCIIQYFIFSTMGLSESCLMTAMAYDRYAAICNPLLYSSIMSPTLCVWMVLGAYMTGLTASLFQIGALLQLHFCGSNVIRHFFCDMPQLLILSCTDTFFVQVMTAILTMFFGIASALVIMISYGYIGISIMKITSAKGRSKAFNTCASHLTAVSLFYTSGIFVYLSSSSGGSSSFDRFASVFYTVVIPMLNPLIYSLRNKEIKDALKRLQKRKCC
protocol_text: Luciferase reporter concentration-response analysis on OR5AN1
Type: cell-based
run_parameters: concentration-response analysis, luciferase reporter; values given as negative (log) numbers; Non Active = no activation after testing; read-out: calculated EC50, OR5AN1 (converted)
property_measured: EC50 (µM)
Answer with a number only, understood to be in µM.

# compound, EC50 (µM)
measured = [
    ("CC(=O)c1cc(C(C)(C)C)cc2c1CCC2(C)C [crysolide]", 120),
    ("O=C1CCCCCCCCOCCCCCCO1 [Oxalide T]", 32.4),
]

Problem: Look up EC50: O=C1CCCCCCCCC/C=C/CCCO1 [Habanolide]
Solution: 66.1

Problem: Check O=C1CCCCCCCCCCCC(=O)OCCO1 [Ethylene Brassylate] too.
Solution: 66.1

Problem: Check O=C1CCCCCCCCCCC(=O)OCCO1 too.
Solution: 75.9

Problem: Check CC1CC(C)(C)C2=C(CC3(C)OC3C2)C1(C)C (stereo not drawn) too.
Solution: 309
